This collection of values is drawn from PubChem BioAssay (EPA / NIEHS).

# Procedure Text: BSK_3C_TissueFactor: BioMAP Diversity Plus: 3C Assay for Tissue Factor Biomarker Activity (AID 2282997)
# Test Context: BioMAP 3C HUVEC, tissue factor biomarker readout; actives raise or lower the signal
# Experimental: BSK_3C is a cell-based, multiplexed-readout assay that uses umbilical vein endothelium, a human vascular primary cell, with measurements taken at 24 hours after chemical dosing in a 96-well plate.BSK_3C_TissueFactor is an assay component measured in the BSK_3C assay. It measures Tissue Factor antibody related to regulation of gene expression using ELISA technology.Data from the assay component BSK_3C_TissueFactor was analyzed into 1 assay endpoint. […]
Activity calls are given as the source filed them. The calls were made as follows: active = hit-call score of the fitted dose curve at least 0.9, where 1 is the maximum; inactive = score below 0.9.
Measure Name: AC50

C[C@]12CC[C@@H]3c4ccc(O)cc4CC[C@H]3[C@@H]1CC[C@@H]2O | 20 µM (active)
CCOC(=O)C=Cc1ccccc1 | inactive
C=C(C)C(=O)OCCC(F)(F)C(F)(F)C(F)(F)C(F)(F)C(F)(F)C(F)(F)C(F)(F)C(F)(F)F | inactive
CCCCN(CCO)CCO | inactive
CCC(=O)OCC=Cc1ccccc1 | inactive
COc1ccccc1NC(=O)CC(C)=O | inactive
O=C(O)C(F)(F)OC(F)(F)C(F)(F)OC(F)(F)C(F)(F)C(F)(F)C(F)(F)F | inactive
C#C[C@]1(O)CC[C@H]2[C@@H]3CCc4cc(O)ccc4[C@H]3CC[C@@]21C | 5.38 µM (active)

Please give measured AC50 of the following entry: `C=C(F)C(=O)OC(C(F)(F)F)C(F)(F)F`
inactive

Please give measured AC50 of the following entry: `CCn1cc(C(=O)O)c(=O)c2ccc(C)nc21`
inactive

Please give measured AC50 of the following entry: `CC=CC(=O)C1=C(C)C=CCC1(C)C`
inactive

Please give measured AC50 of the following entry: `NC(=O)c1c(Cl)cccc1Cl`
0.0671 µM (active)

Please give measured AC50 of the following entry: `O=C1OC2(c3ccc(O)cc3Oc3cc(O)ccc32)c2ccccc21`
inactive

Please give measured AC50 of the following entry: `CC(=O)CCC=C(C)CCC=C(C)C`
inactive

Please give measured AC50 of the following entry: `CCCCCCCCCC(=O)OCC`
28.7 µM (active)

Please give measured AC50 of the following entry: `c1ccc2c(c1)-c1ccc3ccc4cccc5cc-2c1c3c45`
0.0352 µM (active)

Please give measured AC50 of the following entry: `OCCN1CCOCC1`
inactive

Please give measured AC50 of the following entry: `C=C(C)C(N)=O`
inactive

* * *

# Read-out: Tissue Factor, F3 (gene 2152)
# Procedure Text: BSK_CASM3C_TissueFactor: BioMAP Diversity Plus: CASM3C Assay for Tissue Factor Biomarker Activity (AID 2283052);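 also: cell surface tissue factor protein level read by ELISA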
# Test Context: primary human coronary artery smooth muscle cells; actives raise or lower the signal
The source made the active and inactive calls. The calls were made as follows: active = hit-call score of the fitted dose curve at least 0.9, where 1 is the maximum; inactive = score below 0.9.
Measure Name: AC50

C=C(C)C(N)=O | inactive
CCC(=O)OCC=Cc1ccccc1 | inactive
C=CC(=O)OCC(CO)(COC(=O)C=C)COC(=O)C=C | 1.25 µM (active)
CC=CC(=O)C1=C(C)C=CCC1(C)C | inactive
CCCCN(CCO)CCO | inactive

Please give measured AC50 of the following entry: `COc1ccccc1NC(=O)CC(C)=O`
inactive

Please give measured AC50 of the following entry: `O=C(O)C(F)(F)C(F)(F)C(F)(F)C(F)(F)C(F)(F)C(F)(F)C(F)(F)C(F)F`
inactive

Please give measured AC50 of the following entry: `CC(C)CCCC(C)(C)O`
inactive

Please give measured AC50 of the following entry: `c1ccc(Sc2ccccc2)cc1`
20 µM (active)

Please give measured AC50 of the following entry: `CCCO[Si](OCCC)(OCCC)OCCC`
inactive

Please give measured AC50 of the following entry: `C#C[C@]1(O)CC[C@H]2[C@@H]3CCc4cc(O)ccc4[C@H]3CC[C@@]21C`
inactive

Please give measured AC50 of the following entry: `CCOC(=O)CCCCCCCCC(=O)OCC`
inactive

Please give measured AC50 of the following entry: CCCCCCCC1CCCC1=O (stereo not drawn)
31.8 µM (active)

Please give measured AC50 of the following entry: `C=C1CC/C=C(\C)CC[C@@H]2[C@@H]1CC2(C)C`
inactive

Please give measured AC50 of the following entry: `c1ccc(OCCOc2ccccc2)cc1`
inactive

Please give measured AC50 of the following entry: `O=S(=O)(O)C(F)(F)C(F)(F)OC(F)(F)C(F)(F)F`
inactive

Please give measured AC50 of the following entry: `O=C(O)C(F)(F)OC(F)(F)C(F)(F)OC(F)(F)C(F)(F)C(F)(F)C(F)(F)F`
inactive

Please give measured AC50 of the following entry: `CC(C)(CO)CO`
inactive
